TEST_PROTOCOL: recombinant UMI read abundance after kanamycin selection (control-corrected) (log10(CPM+1)); higher = more efficient recombination; extreme values may be limits of the assay; sequences stand for … in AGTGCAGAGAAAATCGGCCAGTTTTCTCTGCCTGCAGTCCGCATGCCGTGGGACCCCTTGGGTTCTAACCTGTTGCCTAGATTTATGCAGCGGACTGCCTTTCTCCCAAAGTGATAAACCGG…AGGTTGGTTTCACT; site = the 11-nt donor
OBSERVED_PROPERTY: recombinant UMI read abundance (log10)

[[record]]
construct_sequence = "GCACGACCATGGACCGGTTTTCCCGGTAATCCGTATTTGGG (site GCACGACCTCC)"
observed_property = "recombinant UMI read abundance (log10)"
experimental_value = 0.0133

[[record]]
construct_sequence = "TGCTAGGCATGGACCGGTTTTCCCGGTAATCCGTATTTGGT (site TGCTAAGCTAC)"
observed_property = "recombinant UMI read abundance (log10)"
experimental_value = 0.0704

[[record]]
construct_sequence = "GTGTTACCATGGACCGGTTTTCCCGGTAATCCGTATTTGGT (site GTGTTACCTAC)"
observed_property = "recombinant UMI read abundance (log10)"
experimental_value = 0

[[record]]
construct_sequence = "TAGGAATCATGGACCGGTTTTCCCGGTAATCCGTATTTGCG (site TAGGAATCTCT)"
observed_property = "recombinant UMI read abundance (log10)"
experimental_value = 2.03

[[record]]
construct_sequence = "TCTGAGACATGGACCGGTTTTCCCGGTAATCCGTATTTGCG (site TCAGAGACTCG)"
observed_property = "recombinant UMI read abundance (log10)"
experimental_value = 0

[[record]]
construct_sequence = "GGAGCCCCATGGACCGGTTTTCCCGGTAATCCGTATTTGGG (site GGAGCCCCTCC)"
observed_property = "recombinant UMI read abundance (log10)"
experimental_value = 0.00903

[[record]]
construct_sequence = "GTATGCACATGGACCGGTTTTCCCGGTAATCCGTATTTGTA (site GTGTGCACTTA)"
observed_property = "recombinant UMI read abundance (log10)"
experimental_value = 0.384

[[record]]
construct_sequence = "GTGCATGCATGGACCGGTTTTCCCGGTAATCCGTATTTGGC (site GTGCATGCTTC)"
observed_property = "recombinant UMI read abundance (log10)"
experimental_value = 0.89

[[record]]
construct_sequence = "GTAGTGTCATGGACCGGTTTTCCCGGTAATCCGTATTTGAC (site GTAGTGTCTGT)"
observed_property = "recombinant UMI read abundance (log10)"
experimental_value = 3.23


----------
TEST_PROTOCOL: recombinant barcode read abundance after kanamycin selection (control-corrected) (log10(CPM+1)); higher = more efficient recombination; sequences stand for … in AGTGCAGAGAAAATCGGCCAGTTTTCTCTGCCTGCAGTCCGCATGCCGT…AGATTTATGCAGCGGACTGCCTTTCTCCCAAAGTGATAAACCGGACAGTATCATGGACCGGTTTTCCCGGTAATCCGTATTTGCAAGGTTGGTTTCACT; site = the 11-nt target
OBSERVED_PROPERTY: recombinant barcode read abundance (log10)

[[record]]
construct_sequence = "ACTGAGTCTTGGGTTCTAACCTGTTGCTT (site ACTGAGTCTAA)"
experimental_value = 1.22

[[record]]
construct_sequence = "TGTCGGACTTGGGTTCTAACCTGTTGCAA (site TGTCGGACTAT)"
experimental_value = 0.146

[[record]]
construct_sequence = "CTAAGAACTTGGGTTCTAACCTGTTGCCT (site CTAAGAACTAC)"
experimental_value = 1.05

[[record]]
construct_sequence = "CTGCGGTCTTGGGTTCTAACCTGTTGCAT (site ATGCGGTCTAG)"
experimental_value = 0.138

[[record]]
construct_sequence = "GTATGATCTTGGGTTCTAACCTGTTGCCT (site GTATGAGCTAG)"
experimental_value = 0.742

[[record]]
construct_sequence = "CTAGGCCCTTGGGTTCTAACCTGTTGCGT (site CTAGGCCCTAT)"
experimental_value = 2.28

[[record]]
construct_sequence = "AATTGTCCTTGGGTTCTAACCTGTTGCTT (site AATTGTCCTAT)"
experimental_value = 0.125

[[record]]
construct_sequence = "TAGTGCTCTTGGGTTCTAACCTGTTGCCC (site TAGTGCTCTGG)"
experimental_value = 1.37

[[record]]
construct_sequence = "AAGTTGACTTGGGTTCTAACCTGTTGCCT (site AAATTGACTAG)"
experimental_value = 0.378

[[record]]
construct_sequence = "AACTCTCCTTGGGTTCTAACCTGTTGCAT (site AACTTTCCTAT)"
experimental_value = 0.0336

[[record]]
construct_sequence = "GGCCGGCCTTGGGTTCTAACCTGTTGCCT (site GGCCGGCCTAG)"
experimental_value = 0.128

[[record]]
construct_sequence = "GCTTTACCTTGGGTTCTAACCTGTTGCTT (site GCTTCACCTAG)"
experimental_value = 0.132

[[record]]
construct_sequence = "GAAACTGCTTGGGTTCTAACCTGTTGCCT (site GAAACTGCTAG)"
experimental_value = 0.736

[[record]]
construct_sequence = "ACTATGTCTTGGGTTCTAACCTGTTGCCA (site CCTATGTCTTA)"
experimental_value = 0.00838

[[record]]
construct_sequence = "TCAGCATCTTGGGTTCTAACCTGTTGCCT (site TCAGGATCTAG)"
experimental_value = 0.0504

[[record]]
construct_sequence = "TATTTAGCTTGGGTTCTAACCTGTTGCGG (site ACCAACACTAA)"
experimental_value = 0.0937

[[record]]
construct_sequence = "TAGTCGTCTTGGGTTCTAACCTGTTGCCT (site TAGTCGTCTAG)"
experimental_value = 1.3

[[record]]
construct_sequence = "CTGTTGTCTTGGGTTCTAACCTGTTGCCA (site CTGCTGTCTTG)"
experimental_value = 0.00714

[[record]]
construct_sequence = "TGTGAGCCTTGGGTTCTAACCTGTTGCGA (site CTGCGCTCTAT)"
experimental_value = 0.0373

[[record]]
construct_sequence = "CGACACTCTTGGGTTCTAACCTGTTGCCT (site CGACACTCTAG)"
experimental_value = 0.251

[[record]]
construct_sequence = "TCGGAATCTTGGGTTCTAACCTGTTGCCT (site TCGGAATCTAG)"
experimental_value = 0.543

[[record]]
construct_sequence = "GCAAGGCCTTGGGTTCTAACCTGTTGCCT (site ACAAGGCCTAG)"
experimental_value = 0.0435

[[record]]
construct_sequence = "CCTCGGACTTGGGTTCTAACCTGTTGCAT (site CATCGTACTAT)"
experimental_value = 0.0825

[[record]]
construct_sequence = "AACTGTCCTTGGGTTCTAACCTGTTGCAT (site AACTTTCCTAT)"
experimental_value = 0.106

[[record]]
construct_sequence = "GTATCAGCTTGGGTTCTAACCTGTTGCCT (site GTATCAGCTAG)"
experimental_value = 1.25

[[record]]
construct_sequence = "GGCACGACTTGGGTTCTAACCTGTTGCCT (site GGCACGACTAG)"
experimental_value = 0.323

[[record]]
construct_sequence = "TGTCGGACTTGGGTTCTAACCTGTTGCAA (site TGTCGGACTCT)"
experimental_value = 0.149

[[record]]
construct_sequence = "GCGAAGTCTTGGGTTCTAACCTGTTGCTT (site GCGAAGTCTAA)"
experimental_value = 1.15

[[record]]
construct_sequence = "CCGGGATCTTGGGTTCTAACCTGTTGCCT (site GCGGGATCTAG)"
experimental_value = 0.161

[[record]]
construct_sequence = "CCGGGTACTTGGGTTCTAACCTGTTGCCG (site AGCAACCCTTT)"
experimental_value = 0.0127

[[record]]
construct_sequence = "AATGCTTCTTGGGTTCTAACCTGTTGCCT (site AATTGTTCTAG)"
experimental_value = 0.167

[[record]]
construct_sequence = "GGATGCACTTGGGTTCTAACCTGTTGCCA (site GGATTCACTTG)"
experimental_value = 0.319

[[record]]
construct_sequence = "ACAAAGGCTTGGGTTCTAACCTGTTGCGG (site ACAAAAGCTCC)"
experimental_value = 1.69

[[record]]
construct_sequence = "GAGTGCTCTTGGGTTCTAACCTGTTGCGT (site GAGCGCTCTAG)"
experimental_value = 0.0262

[[record]]
construct_sequence = "TGTCGGACTTGGGTTCTAACCTGTTGCAT (site TGTCGGACTAT)"
experimental_value = 1.32

[[record]]
construct_sequence = "TGTTGAGCTTGGGTTCTAACCTGTTGCCG (site TGTAGAGCTCG)"
experimental_value = 0.09

[[record]]
construct_sequence = "TAGAAGACTTGGGTTCTAACCTGTTGCTT (site TAGAAGACTTA)"
experimental_value = 0.399

[[record]]
construct_sequence = "GTTCAACCTTGGGTTCTAACCTGTTGCCT (site GGTCAACCTAG)"
experimental_value = 0.0287

[[record]]
construct_sequence = "CAGAAGCCTTGGGTTCTAACCTGTTGCCT (site TAGAAGCCTAG)"
experimental_value = 0.0644

[[record]]
construct_sequence = "GCGGGATCTTGGGTTCTAACCTGTTGCCT (site GCGGGATCTAG)"
experimental_value = 1.06

[[record]]
construct_sequence = "TGGCAGACTTGGGTTCTAACCTGTTGCCT (site TGGCAGTCTAG)"
experimental_value = 0.232

[[record]]
construct_sequence = "GTAAACACTTGGGTTCTAACCTGTTGCAG (site GTAGACACTCG)"
experimental_value = 0.113

